Recorded koff values for a group of binders are listed next.
Biological target: T1, Human BCMA (human, UniProt Q02223 1-54, limits assumed)
T1 construct: also called huBCMA; B-cell maturation antigen
T1 sequence (looked up): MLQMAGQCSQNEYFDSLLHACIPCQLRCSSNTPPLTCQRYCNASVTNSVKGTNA
Test: SPR, IgG immobilised, human BCMA analyte
Description: All experiments were performed on a Bio-Rad Proteon XPR36 surface Plasmon resonance biosensor (Bio-Rad, Hercules, Calif.). […] The analysis temperature for the immobilization was 25° C. and the running buffer was HBS-T+(10 mM HEPES, 150 mM NaCl, 0.05% Tween-20, pH 7.4). […] The analysis temperature for the BCMA binding analysis was 37° C. or 25° C. in a running buffer of HBS-T+, supplemented with 1 mg/mL BSA. […] Immediately after the 50 nM BCMA injection, dissociation was monitored for 2 hours. […]

{"Binder": "A02_Rd4_6nM_C26 (antibody, V domains shown, IgG) VH: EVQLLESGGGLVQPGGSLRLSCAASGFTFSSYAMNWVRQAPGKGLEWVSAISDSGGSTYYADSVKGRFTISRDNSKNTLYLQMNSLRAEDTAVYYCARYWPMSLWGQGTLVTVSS VL: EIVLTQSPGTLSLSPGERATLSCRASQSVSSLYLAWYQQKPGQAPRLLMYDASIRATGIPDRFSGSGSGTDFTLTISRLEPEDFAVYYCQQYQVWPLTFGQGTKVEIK", "Unit Text": "s⁻¹", "koff": 0.000139}
{"Binder": "P5A2_VHVL (antibody, V domains shown, IgG) VH: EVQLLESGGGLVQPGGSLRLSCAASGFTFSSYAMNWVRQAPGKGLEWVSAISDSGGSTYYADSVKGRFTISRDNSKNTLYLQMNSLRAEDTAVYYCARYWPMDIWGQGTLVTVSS VL: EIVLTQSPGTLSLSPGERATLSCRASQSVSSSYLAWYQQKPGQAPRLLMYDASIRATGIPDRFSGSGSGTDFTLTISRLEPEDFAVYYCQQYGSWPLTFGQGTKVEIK", "Unit Text": "s⁻¹", "koff": 0.0387}
{"Binder": "A02_Rd4_6nM_C07 (antibody, V domains shown, IgG) VH: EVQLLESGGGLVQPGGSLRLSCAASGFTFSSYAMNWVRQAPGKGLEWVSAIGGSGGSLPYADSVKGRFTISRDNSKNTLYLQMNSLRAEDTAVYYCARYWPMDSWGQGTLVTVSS VL: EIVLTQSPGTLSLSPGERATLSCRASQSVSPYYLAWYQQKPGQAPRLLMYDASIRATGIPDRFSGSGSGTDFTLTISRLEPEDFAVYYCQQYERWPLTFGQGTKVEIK", "Unit Text": "s⁻¹", "koff": 0.000189}

These measurements were taken from patent US20160297884A1.
